Source: the supplement of paper PMC9233669

- System: biotinyl-Val-oxazolone
- testName: self-aminoacylation, catalytic enhancement (BVO) (fold over background); higher = more active; k-Seq, kA / k0A0; sequences stand for … in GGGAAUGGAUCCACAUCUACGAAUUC…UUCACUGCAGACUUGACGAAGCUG
Variants at the floor of the assay were thinned out.
assayMetric: self-aminoacylation
Format: numeric value only, no unit, no commentary.

# query: self-aminoacylation | item AUUAACGUAGGUCAUCGGGUG [Fam2.2 aminoacylation ribozyme variant] | system: biotinyl-Val-oxazolone
3.05

# iterate: CCACACUUCAAGCUAUGGGUC [Fam1B.1 aminoacylation ribozyme variant]
0.911

# iterate: CUACUUCAAAAAAUCGGUCCG [Fam1A.1 aminoacylation ribozyme variant]
0.604

# iterate: CUACUUCAAACAAUCUGUCUU [Fam1A.1 aminoacylation ribozyme variant]
0.74

# iterate: AUUCACCUAGGUCACCGGGGG [Fam2.2 aminoacylation ribozyme variant]
3.51

# iterate: AUUCGCCUAGGUCAUCGUGUG [Fam2.2 aminoacylation ribozyme variant]
1.05

# iterate: CUACUCGAAACAAUCGGUCUG [Fam1A.1 aminoacylation ribozyme variant]
1.01

# iterate: ACGUUUGCUAACAGUCGCAAG [Fam3.1 aminoacylation ribozyme variant]
1.29

* * *

- Tested on: biotinyl-Met-oxazolone
- testName: self-aminoacylation, catalytic enhancement (BMO) (fold over background); higher = more active; k-Seq, kA / k0A0; sequences stand for … in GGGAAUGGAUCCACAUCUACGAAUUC…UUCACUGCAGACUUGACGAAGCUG
This sample holds only a part of the variants without activity.
assayMetric: self-aminoacylation
Format: numeric value only, no unit, no commentary.

# lookup: self-aminoacylation of AUUCACCUAGCUCAUCGAGUG [Fam2.2 aminoacylation ribozyme variant]
0.652

# iterate: AAGUUUGCUACUAGUCGCCAG [Fam3.1 aminoacylation ribozyme variant]
1.26

# iterate: CUACUUCAAACAUUCGGUCAG [Fam1A.1 aminoacylation ribozyme variant]
0.886

# iterate: AUACUUCAAACCAUCGGUCUG [Fam1A.1 aminoacylation ribozyme variant]
0.774

# iterate: CUACUUCAAACAAUCAUUCUG [Fam1A.1 aminoacylation ribozyme variant]
0.488

# iterate: AAGUUUGCUAAUAGUCACAAG [Fam3.1 aminoacylation ribozyme variant]
1.45

# iterate: CUACUUCAAGCACUCGGUCUG [Fam1A.1 aminoacylation ribozyme variant]
0.971

# iterate: AAGUUUACAAAUAGUCGCAAG [Fam3.1 aminoacylation ribozyme variant]
1.51

# iterate: ACGUUUGCUAAUAGUCACAAG [Fam3.1 aminoacylation ribozyme variant]
0.95

# iterate: CUACUUCAAACAUUCGGUCUC [Fam1A.1 aminoacylation ribozyme variant]
0.849

# iterate: AUUCACCUAAGUCAUCGGGAG [Fam2.2 aminoacylation ribozyme variant]
1.2

# iterate: AUUAUCCUGGUCAUCGCGUGA [Fam2.1 aminoacylation ribozyme variant]
17.9

# iterate: ACACCCUUCAAGCAAUCGGUC [Fam1B.1 aminoacylation ribozyme variant]
0.897

# iterate: AUUCACCUAAGUCAUCGGCUG [Fam2.2 aminoacylation ribozyme variant]
1.55

# iterate: CUUACCCUCGUCAUCGAGUGA [Fam2.1 aminoacylation ribozyme variant]
2.42

# iterate: AUUCGCCUAGGUCAUCUGGUG [Fam2.2 aminoacylation ribozyme variant]
2.96

# iterate: CUACUCAAAACAAUCGGUCUG [Fam1A.1 aminoacylation ribozyme variant]
1.11

# iterate: AUUACCCUGGGCAUCGAGUUA [Fam2.1 aminoacylation ribozyme variant]
0.642
